// reported pIC50 for each item listed
# system.tested: PI3K-γ in RAW264.7 macrophages (Mus musculus (Mouse), UniProt Q9JHG7)
# Sequence (Q9JHG7 whole entry): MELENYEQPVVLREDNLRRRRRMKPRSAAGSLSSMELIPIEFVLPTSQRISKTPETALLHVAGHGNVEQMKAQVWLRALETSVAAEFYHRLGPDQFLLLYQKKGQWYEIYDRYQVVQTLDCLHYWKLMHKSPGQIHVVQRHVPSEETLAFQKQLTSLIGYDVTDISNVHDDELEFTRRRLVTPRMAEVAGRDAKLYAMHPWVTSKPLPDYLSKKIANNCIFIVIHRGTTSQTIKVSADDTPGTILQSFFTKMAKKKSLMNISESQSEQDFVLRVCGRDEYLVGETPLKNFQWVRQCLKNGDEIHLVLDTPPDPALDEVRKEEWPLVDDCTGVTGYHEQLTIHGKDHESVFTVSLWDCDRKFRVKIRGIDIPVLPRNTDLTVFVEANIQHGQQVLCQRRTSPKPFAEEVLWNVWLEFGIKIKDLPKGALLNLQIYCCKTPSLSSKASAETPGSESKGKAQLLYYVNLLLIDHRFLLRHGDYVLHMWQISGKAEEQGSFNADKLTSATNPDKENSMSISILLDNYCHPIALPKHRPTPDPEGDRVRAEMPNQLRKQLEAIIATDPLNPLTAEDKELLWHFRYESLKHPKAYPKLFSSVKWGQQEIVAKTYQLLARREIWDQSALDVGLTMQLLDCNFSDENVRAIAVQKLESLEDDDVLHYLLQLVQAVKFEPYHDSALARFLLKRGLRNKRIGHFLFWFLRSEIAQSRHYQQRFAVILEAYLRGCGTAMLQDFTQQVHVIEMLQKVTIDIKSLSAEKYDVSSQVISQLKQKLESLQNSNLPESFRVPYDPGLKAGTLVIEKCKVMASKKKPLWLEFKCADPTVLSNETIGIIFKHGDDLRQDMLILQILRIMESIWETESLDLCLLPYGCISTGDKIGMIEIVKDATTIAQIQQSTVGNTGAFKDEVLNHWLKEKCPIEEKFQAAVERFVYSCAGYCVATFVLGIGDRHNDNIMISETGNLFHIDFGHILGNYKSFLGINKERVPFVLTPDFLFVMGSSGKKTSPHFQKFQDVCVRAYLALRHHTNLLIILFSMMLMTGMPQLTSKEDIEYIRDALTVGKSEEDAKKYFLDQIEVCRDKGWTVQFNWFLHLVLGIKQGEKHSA
# assay.remarks: Raw264.7 p110 γ assay (PI3K-γ selective cellular assay, C5a-stimulated phospho-AKT)
# Format: cell-based
# test.parameters: phospho-AKT; read-out: Raw264.7 p110 γ assay IC50
pIC50: −log10 of the molar value.
observable: pIC50

> print(dat)
                                   compound  value.measured
1  CC(=O)N1CCC(C#Cc2cccc3cc([C@H](C)NC(=O)c4c(N)nn5cccnc45)n(-c4ccccc4)c(=O)c23)CC1 [Compound 82]    7.30 to 9.00
2  C[C@H](NC(=O)c1c(N)nn2cccnc12)c1cc2cccc(C#CC3CCNCC3)c2c(=O)n1-c1ccccc1 [Compound 72]    5.00 to 7.00
3  Cc1ncc(C#Cc2cccc3cc([C@H](C)NC(=O)c4c(N)nn5cccnc45)n(-c4ccccc4)c(=O)c23)s1 [Compound 76]    7.30 to 9.00
4  C[C@H](NC(=O)c1c(N)nn2cccnc12)c1cc2cccc(C#CC=O)c2c(=O)n1-c1ccccc1 [Compound 36]    5.00 to 7.00
5  COc1cc(C#Cc2cccc3cc([C@H](C)NC(=O)c4c(N)nn5cccnc45)n(-c4ccccc4)c(=O)c23)ccn1 [Compound 28]    7.30 to 9.00
6  C[C@H](NC(=O)c1c(N)nn2cccnc12)c1cc2cccc(C#Cc3cccnc3)c2c(=O)n1-c1ccccc1 [Compound 17]    7.30 to 9.00
7  CC#Cc1cccc2nc([C@H](C)NC(=O)c3c(N)nn4cccnc34)n(-c3ccccc3)c(=O)c12 [Compound 1]    7.30 to 9.00
